test system: Vero E6 infected with SARS-CoV-2; assay: inhibition of SARS-CoV-2 cytopathic effect; higher = more antiviral protection, active = above 15; details: 10000 nM; 48 h
recorded endpoint: inhibition of SARS-CoV-2 cytopathic effect (%)
One number for each entry, in %.

Answered cases to consult:
Cc1cc(NC(=O)NCCN2CCC(O)(Cc3ccccc3)CC2)c2ccccc2n1; 1.86
C[C@H](NC(=O)/C(C#N)=C/c1cccc(Br)n1)c1ccccc1; -4.77
NS(=O)(=O)c1cc2c(cc1Cl)N=CNS2(=O)=O [chlorothiazide]; -0.76
CC1(C)C(=O)NC2=C1C(=O)C(=O)c1ccccc12; -10.5
C[C@H](N)Cc1cccc(O)c1; 0.56

Give me inhibition of SARS-CoV-2 cytopathic effect for each of these compounds, listed below.
1. O=C1N(c2ccccc2)c2ccccc2C1(Cc1ccncc1)Cc1ccncc1
2. CCCCCCCCCCCCCCCCCC(=O)OCC(O)CO (configuration not stated)
3. COc1ccc2c(c1)C(=O)N(CCc1ccc(S(=O)(=O)NC(=O)NC3CCCCC3)cc1)C(=O)C2(C)C

Reply:
1. 1.14
2. -0.08
3. -0.29

Give me inhibition of SARS-CoV-2 cytopathic effect for each of these compounds, listed below.
1. CN(C)c1ccc(C(=C2C=CC(=[N+](C)C)C=C2)c2ccc(N(C)C)cc2)cc1
2. COc1cc(NC(=O)Nc2cccc(CNC(=O)O[C@H]3CCOC3)c2)ccc1-c1cnco1
3. CC(C)NCCCn1c(Sc2cc3c(cc2I)OCO3)nc2c(N)ncnc21
4. Cc1[nH]c2ccc(Cl)cc2c1C1=CCNCC1
5. CC[C@H](CC[C@@H](C)[C@H]1CC[C@H]2[C@@H]3CC=C4C[C@@H](O)CC[C@]4(C)[C@H]3CC[C@]12C)C(C)C
6. CC[C@H](C)[C@@H]1NC(=O)[C@H](Cc2ccc(OC)cc2)NC(=O)CCCSC[C@@H](C(=O)N2CCC[C@H]2C(=O)N[C@@H](CC(C)C)C(=O)NCC(N)=O)NC(=O)[C@H](CC(N)=O)NC(=O)[C@H](CCC(N)=O)NC1=O
7. O=C(O)CCNc1cc(N2CCc3ccccc3CC2)nc(-c2ccccn2)n1

Reply:
-22.8
8.45
-3.3
10.1
-1.08
-1.25
0.82

Give me inhibition of SARS-CoV-2 cytopathic effect for each of these compounds, listed below.
1. OC[C@@H](O)[C@@H](O[C@@H]1O[C@H](CO)[C@H](O)[C@H](O)[C@H]1O)[C@H](O)[C@@H](O)CO
2. O=C1CC2(CCCC2)CC(=O)N1CCCCNC[C@H]1COc2ccccc2O1 (racemic)

Reply:
1: -0.36; 2: -5.48

---

tested on: Vero E6 infected with SARS-CoV-2; test: inhibition of SARS-CoV-2 cytopathic effect; higher = more antiviral protection, active = above 15; details: 833.33 nM; 48 h
Record form. Attribute: inhibition of SARS-CoV-2 cytopathic effect. Fill in for each entry.
Answers are plain numbers, in %.

COc1cc2c(cc1O)C(CCc1ccc(Cl)cc1)N(C)CC2 (centres undefined); 0
CN1CCN2c3c(cccc31)[C@@H]1CN(CCCC(=O)c3ccc(F)cc3)CC[C@@H]12; 2.75
C=C[C@@]1(C)CC(=O)[C@]2(O)[C@@]3(C)[C@@H](O)CCC(C)(C)[C@@H]3[C@H](OC(=O)CCN(C)C)[C@H](OC(C)=O)[C@@]2(C)O1 [colforsin-daproate]; 3.07

// next entry
// recorded inhibition of SARS-CoV-2 cytopathic effect for CC(C)C(=O)SCCCCC[C@H](NC(=O)OC(C)(C)C)C(=O)NC12CC3CC(CC(C3)C1)C2 : 2.47

---

Record form. Attribute: inhibition of SARS-CoV-2 cytopathic effect. Fill in for each entry.
system: Vero E6 infected with SARS-CoV-2; assay: inhibition of SARS-CoV-2 cytopathic effect; higher = more antiviral protection, active = above 15; conditions: 1 nM; 48 h
Answers are plain numbers, in %.

Answered cases to consult:
CN1CCN(CC(=O)N2c3ccccc3C(=O)Nc3cccnc32)CC1 [pirenzepine]; -0.09
O=C(O)c1ccc(S(=O)(=O)N(Cl)Cl)cc1; -0.04
C[C@H](CCC(=O)NCCS(=O)(=O)O)[C@H]1CC[C@H]2[C@@H]3[C@H](O)C[C@@H]4C[C@H](O)CC[C@]4(C)[C@H]3C[C@H](O)[C@]12C [taurocholate]; -8.93
O=C1[C@H]2CCCC[C@H]2C(=O)N1CCCCN1CCN(c2nsc3ccccc23)CC1; -1.38
Cc1[nH]c(/C=C2\C(=O)Nc3ccc(S(=O)(=O)N(C)c4cccc(Cl)c4)cc32)c(C)c1C(=O)N1CCN(C)CC1; 2.2

Give me inhibition of SARS-CoV-2 cytopathic effect for each of these molecules, listed below.
1. CC12CCC(C(=O)N(CCCCN3CCN(c4ccccn4)CC3)C1=O)C2(C)C (centres undefined)
2. OC(c1ccccc1)(c1ccccc1)C12CC[N+](CCOCc3ccccc3)(CC1)CC2
3. C[n+]1c2cc(N)ccc2cc2ccc(N)cc21
4. C[C@H](CCC(=O)O)[C@H]1CC[C@H]2[C@@H]3C(=O)C[C@@H]4CC(=O)CC[C@]4(C)[C@H]3CC(=O)[C@]12C [dehydrocholate-acid]
5. COc1ccc2c(c1)CN(C)CC2c1ccc(Cl)c(Cl)c1 (centres undefined)
6. Cc1cccc2c1CC[C@H](CN1CCC(c3c(Cl)cccc3Cl)CC1)C[C@@H]2O
7. CN1CCN2c3c(cccc31)[C@@H]1CN(CCCC(=O)c3ccc(F)cc3)CC[C@@H]12
8. CCc1cc(C(C)=O)c(O)cc1OCCCCCC(C)(C)c1nn[nH]n1

Reply:
1. -2.91
2. -0.48
3. -3.77
4. -5.5
5. 3.38
6. -2.92
7. -2.67
8. -2.28

Give me inhibition of SARS-CoV-2 cytopathic effect for each of these molecules, listed below.
1. COc1ccc2cc(C(C)C(=O)Oc3ccc(C(N)=S)cc3)ccc2c1 (centres undefined)
2. Nc1ccn([C@@H]2O[C@H](CO)[C@@H](O)C2(F)F)c(=O)n1
3. CCOC(=O)[C@@]1(CCCCCCOc2ccc(Cl)cc2)CO1
4. CNC(=O)c1ccc2c(c1)CCO[C@H]2CCN1CCN(c2ccc(C(N)=O)cc2)CC1
5. Cc1ccc2nc(NCCN)c3ncc(C)n3c2c1
6. O=C(CN1C2=NCCN2c2ccccc21)c1ccc(-c2ccccc2)cc1
7. C[C@@H]1CN(Cc2ccc(F)cc2)[C@@H](C)CN1C(=O)c1cc2c(C(=O)C(=O)N(C)C)cn(C)c2cc1Cl

Reply:
-0.75
1.67
-0.23
1.05
-1.03
-0.77
-1.36

---

tested on: Vero E6 infected with SARS-CoV-2; test: inhibition of SARS-CoV-2 cytopathic effect; higher = more antiviral protection, active = above 15; details: 10000 nM; 48 h
Record form. Attribute: inhibition of SARS-CoV-2 cytopathic effect. Fill in for each entry.

Answered cases to consult:
CCOC(=O)[C@H](CCc1ccccc1)N[C@H]1CS[C@H](c2cccs2)CN(CC(=O)O)C1=O; -3.19% (inactive)
C[C@]12CC[C@H]3[C@@H](CC[C@]4(O)C[C@@H](O)CC[C@]34C=O)[C@@]1(O)CC[C@@H]2C1=CC(=O)OC1; -16.9% (inactive)
O=[N+]([O-])c1cccc2cn[nH]c12; -1.2% (inactive)
COc1cc2c(cc1OC)[C@@]13CCN4CC5=CCO[C@H]6CC(=O)N2[C@H]1[C@H]6[C@H]5C[C@H]43; 0.47% (inactive)
C[C@H](CCC(=O)O)[C@H]1CC[C@H]2[C@@H]3C(=O)C[C@@H]4CC(=O)CC[C@]4(C)[C@H]3CC(=O)[C@]12C [dehydrocholate-acid]; -7.01% (inactive)

Give me inhibition of SARS-CoV-2 cytopathic effect for each of these molecules, listed below.
1. O=C(c1ccc(F)cc1)C1CCN(CCn2c(=S)[nH]c3ccccc3c2=O)CC1
2. C[C@H]1O[C@@H](O[C@H]2[C@@H](O)C[C@H](O[C@H]3[C@@H](O)C[C@H](O[C@H]4CC[C@@]5(C)[C@H](CC[C@@H]6[C@@H]5C[C@@H](O)[C@]5(C)[C@@H](C7=CC(=O)OC7)CC[C@]65O)C4)O[C@@H]3C)O[C@@H]2C)C[C@H](O)[C@@H]1O
3. Cc1nc(Nc2cnn(C3CCNCC3)c2)nc2c1N(C)C(=O)c1cc3ccccc3cc1N2C
4. Nc1ccc(S(=O)(=O)Nc2nccs2)cc1

Reply:
1: 1% (inactive); 2: -14.5% (inactive); 3: 48.4% (active); 4: -0.08% (inactive)

---

system: Vero E6 infected with SARS-CoV-2; experiment: SARS-CoV-2 infection rate relative to infected DMSO; higher = more infection, active = 60 or less; details: 24 h
recorded endpoint: SARS-CoV-2 infection rate (%)
Numbers only, in %.

Answered cases to consult:
c1cnc2cc3c(cc2n1)[C@@H]1CNC[C@H]3C1 [varenicline] (10 µM); 101
CC(=O)OC[C@H]1O[C@@](COC(C)=O)(O[C@H]2O[C@H](COC(C)=O)[C@@H](OC(C)=O)[C@H](OC(C)=O)[C@H]2OC(C)=O)[C@@H](OC(C)=O)[C@@H]1OC(C)=O [sucrose-octaacetate] (10 µM); 103

Give me SARS-CoV-2 infection rate for each of these molecules, listed below.
1. O=C1N(c2ccccc2)c2ccccc2C1(Cc1ccncc1)Cc1ccncc1 [linopirdine] (10 µM)
2. COc1cc(-c2ncn(/C=C\C(=O)OC(C)C)n2)cc(C(F)(F)F)c1 (10 µM)
3. CCC1=C[C@@H]2CN3CCc4c([nH]c5ccccc45)[C@@](C(=O)OC)(C2)[C@@H]13 [catharanthine] (10 µM)
4. CCS(=O)(=O)Nc1ccc2c(c1)/C(=C(/Nc1ccc(CN3CCCCC3)cc1)c1ccccc1)C(=O)N2 [hesperadin] (10 µM)

Reply:
[91, 114, 110, 110]

// recorded SARS-CoV-2 infection rate for CNC1CC(c2ccc(Cl)c(Cl)c2)c2ccccc21 (configuration not stated) [indatraline] (10 µM) : 114
